The entries below come with measured logP values attached.
# Assay Name: logP by HPLC on reversed-phase columns (C 18), EEC Directive 79/831 Annex V.A8
# Assay type: physicochemical
# Assay Context: method marker [b]; footnote not given; compound 68 value matches logP (pH 2.3)

COCC(C)Nc1nc(Nc2ccc(OC)cc2)ncc1Cl (stereo not shown)
1.56[b]

# logP of CCOc1cccc(Nc2ncc(Cl)c(NC(C)COC)n2)c1 (stereo not shown) = 2.04[b]

// field: logP; key: COCC(C)Nc1nc(Nc2ccc(OC)c(OC)c2)ncc1Br (stereo not shown) ; value = 1.55[b]

# logP (compound: CCOc1cccc(Nc2ncc(Br)c(NC(C)COC)n2)c1 (stereo not shown) ) is 2.18[b]

// COCC(C)Nc1nc(Nc2ccc3c(c2)OC(F)(F)C(F)(F)O3)ncc1Br (stereo not shown) : logP value = 4.08[b]

Entry COCC(C)Nc1nc(Nc2ccc(OC)c(OC)c2)ncc1Cl (stereo not shown) ; logP = 1.46[b]

Value of measured logP for the entry CN(C)c1nc(Nc2ccccc2)ncc1Cl : 1.73[b]

====

# Assay Name: logP by HPLC on reversed-phase columns (C 18), EEC Directive 79/831 Annex V.A8
# Assay type: physicochemical
# Assay Context: reversed-phase HPLC column (C 18), pH 2.3, pH 2.3, 0.1% aqueous phosphoric acid and acetonitrile; read-out: logP [a]
// reported chromatographic logP per item
Give the figure only, with no unit attached.

C=CCN(C)c1nc(Cl)ncc1Cl
2.98

For reference, reported chromatographic logP for CC(C)CNc1nc(Cl)ncc1Cl stands at 2.93

Consider CCCCNc1nc(Cl)ncc1Cl . Its measured chromatographic logP is 2.91

====

# Assay Name: logP by HPLC on reversed-phase columns (C 18), EEC Directive 79/831 Annex V.A8
# Type: physicochemical
# Assay Context: values marked [b]; footnote not given
Catalogue of logP readings, one per entry.

Use these answered entries as a reference point.
CC(=O)Nc1ccc(Nc2ncc(Cl)c(NC(C)C)n2)cc1
1.32[b]
COc1ccc(Nc2ncc(Cl)c(NC(C)C)n2)cc1
1.63[b]
CC(C)Nc1nc(Nc2cccc(NC(=O)C(C)(C)C)c2)ncc1Cl
1.91[b]
Cc1cccc(Nc2ncc(Cl)c(NC(C)C)n2)c1
2[b]
COCC(C)Nc1nc(Nc2ccc(S(C)(=O)=O)cc2)ncc1Cl (racemic)
1.85[b]
CC(C)Nc1nc(Nc2cccc(S(=O)(=O)N3CCCCC3)c2)ncc1Cl
2.08[b]

Entry CC(C)Nc1nc(Nc2ccc3cc[nH]c3c2)ncc1Cl ; logP = 1.63[b]

Lab note: C=C(C)C(=O)Nc1cccc(Nc2ncc(Cl)c(NC(C)C)n2)c1 gave logP of 1.66[b]

The compound identified as COCC(C)Nc1nc(Nc2cccc(C(=O)N(C)C)c2)ncc1Cl (stereo not drawn) registered its logP at 1.47[b]

Memo: COCC(C)Nc1nc(Nc2ccc(NC(=O)C(C)(C)C)cc2)ncc1Cl (racemic) , reported logP: 1.78[b]

# compound COCC(C)Nc1nc(Nc2cccc(C=O)c2)ncc1Cl (stereo not drawn) ; its logP = 1.8[b]

Notebook: CNC(=O)Oc1cccc(Nc2ncc(Cl)c(NC(C)C)n2)c1 , logP read as 1.53[b]

Please fill in: logP reported for FC(F)(F)OCCNc1nc(Nc2ccccc2)ncc1Cl = 2.26[b]

GET /value?item= COC(=O)Nc1cccc(Nc2ncc(Cl)c(NC(C)C)n2)c1 &field=logP returns 1.59[b]

Item: CCNc1nc(Nc2ccccc2)ncc1Cl | logP: 1.38[b]

GET /value?item= COCC(C)Nc1nc(Nc2ccc3sc(C)nc3c2)ncc1Br (stereo not drawn) &field=logP returns 1.87[b]

GET /value?item= CCOC(=O)Nc1cccc(Nc2ncc(Cl)c(NC(C)COC)n2)c1 (racemic) &field=logP returns 1.78[b]

get_value(item= COCC(C)Nc1nc(Nc2ccc(O)c(F)c2)ncc1Cl (stereo not drawn) , readout=logP) returns 1.34[b]
